This collection of values is drawn from ChEMBL document CHEMBL1201862.

- Test system: SF-295
- protocol: NCI tumour cell line growth inhibition, 48 h
Calls of active or inactive are those of the source. Cut-off read from the data, not from the text of the source: active = GI50 up to about 1.1 µM and inactive = higher.
readout.name: GI50

molecule	system.tested	observed
O=[N+]([O-])c1ccc2nc3ccc([N+](=O)[O-])cn3c2c1	SF-295	> 100 µM (inactive)
O=[N+]([O-])/C(Cl)=C/C(=C1/Nc2ccccc2O1)[N+](=O)[O-]	SF-295	26.7 µM (inactive)
COC(=O)C1(CCCCl)CCCN1C(=O)OC(C)(C)C (stereo unspecified)	SF-295	> 100 µM (inactive)
Cc1cnc2cc(Cl)ccc2c1SCC(=O)O	SF-295	> 100 µM (inactive)
N=C(N)C1CN(CCc2c[nH]cn2)C(=O)NC1=O (stereo unspecified)	SF-295	> 100 µM (inactive)

Attention now turns to another entry.
Query block: Please report GI50 for the following molecule: O=S1(=O)c2cnccc2N=C(NCc2ccccc2)N1c1ccccc1
Result block: 89.1 µM (inactive)

----------
- Tested on: 786-0
- protocol: NCI tumour cell line growth inhibition, 48 h
Calls of active or inactive are those of the source. Cut-off read from the data, not from the text of the source: active = GI50 up to about 1.1 µM and inactive = higher.
Form entry, call: pick from class 1 = active, class 0 = inactive

compound	assigned.category
CCCCCc1cccc(=O)o1	class 0

Query block: Look up the recorded call for COc1cc(OCc2nc3cc(C(F)(F)F)ccc3nc2-c2ccccc2)cc(OC)c1OC in this test.
Result block: class 0

Query block: Field: outcome | Entry: CC(C)(C)C(=O)CC(=O)C(C)(C)C.CC(C)(C)C(=O)CC(=O)C(C)(C)C.[SiH4]
Result block: class 0

Query block: Dear all, I need the recorded test outcome for Nc1nc(NCC2(CO)CC2)cc(=O)[nH]1 , thank you.
Result block: class 0

Query block: # lookup: test call for CC(=O)c1cc2c(s1)C(=O)c1sccc1C2=O
Result block: class 1

Query block: Which outcome did this test record for the compound COc1cccc(C2CC(=O)c3cc(N4CCCC4)ccc3N2)c1 (stereo unspecified) ?
Result block: class 1

----------
- System: TK-10
- protocol: NCI tumour cell line growth inhibition, 48 h
Activity calls are given as the source filed them. Cut-off read from the data, not from the text of the source: active = GI50 up to about 1.1 µM and inactive = higher.
Give one outcome, nothing more. List: true (1) = active, false (0) = inactive

Field: example entries. Status: answers known.
compound	assigned.category
Nc1ncnc2c1ncn2CC(OCP(=O)(O)O)Oc1ccccc1 (stereo not drawn)	false (0)
Cc1noc2cccc(O)c12	false (0)

Query block: Identify the outcome logged in this assay for the compound shown: O=C(/C=C/c1ccc(Cl)cc1)c1nc2ccccc2[nH]1
Result block: false (0)

Query block: Returns: the outcome recorded for O=C(O)CN(CCNC(=O)OCC1c2ccccc2-c2ccccc21)CCNC(=O)OCC1c2ccccc2-c2ccccc21 in this assay.
Result block: false (0)

Query block: Test call for this compound, please: CN(CCCCCl)P(=O)(OCC1=CC(=O)c2ccccc2C1=O)OC[C@H]1O[C@@H](n2cc(F)c(=O)[nH]c2=O)C[C@@H]1O (stereo partly drawn)
Result block: false (0)

Query block: For this compound, state the assay outcome: O=NN(CCCl)C(=O)N[C@H]1CC[C@@H](C(=O)O)CC1
Result block: false (0)

Query block: Recorded test outcome, item COc1ccc2c(c1OC)C1=C(C2=O)c2cc3c(cc2CCN1)OCO3
Result block: false (0)

----------
- System: K562
- protocol: NCI tumour cell line growth inhibition, 48 h
Calls of active or inactive are those of the source. No stated cut-off is given here; in the data, active = GI50 up to about 1.1 µM and inactive = higher.
For each of the compounds below, state its GI50.

Below, each entry is followed by its recorded GI50 result.
compound	system.tested	GI50
COC(=O)C1=C(C)NC2(O)C=CC(=O)C3C(=O)N(c4ccccc4)C(=O)C132 (stereo unspecified)	K562	48.2 µM (inactive)
Nc1ncnc2c1ncn2CC(OCP(=O)(O)O)Oc1ccccc1 (stereo unspecified)	K562	> 100 µM (inactive)
COC(OC)c1cccc2c1C1(O)CCC3(CC21)OCCCCO3 (stereo unspecified)	K562	> 100 µM (inactive)

Would you be so kind as to report GI50 for each listed record?
1. CN(C)Cc1cc(C=O)cc(CN(C)C)c1O
2. CN1CC=C(c2cccn2C)CC1
3. COC(=O)c1cccc2cccc(C(=O)Nc3ccc(Cl)cc3)c12
4. N#CC(c1ccc(Cl)cc1)c1cccc(C(C#N)c2ccc(Cl)cc2)n1 (stereo unspecified)

Result block:
["> 100 µM (inactive)", "> 100 µM (inactive)", "0.142 µM (active)", "6.35 µM (inactive)"]

Below are some compounds; for each one, tell me its GI50.
1. CC(C)[Si](OC1=C(C(=O)Nc2ccccc2Cl)CCCCC1)(C(C)C)C(C)C
2. O=C1c2c(Br)sc(Br)c2[C@@H](NC(=O)C(F)(F)F)C1Br (stereo partly specified)
3. NC(=S)N/N=C1\CCc2ccccc2C1
4. Cc1cc(NS(=O)(=O)c2ccc(Nc3c4ccccc4nc4c(C(=O)Nc5ccc(S(N)(=O)=O)cc5)cccc34)cc2)no1

Result block:
1. > 100 µM (inactive)
2. 1.93 µM (inactive)
3. > 100 µM (inactive)
4. 44.3 µM (inactive)

----------
- Test system: EKVX
- protocol: NCI tumour cell line growth inhibition, 48 h
Activity calls are given as the source filed them. Cut-off read from the data, not from the text of the source: active = GI50 up to about 1.1 µM and inactive = higher.
Record form. Attribute: GI50. Fill in for each entry.

compound	readout.name	observed
Clc1ccc(Cc2nc3cc4ccccc4cc3[nH]2)cc1Cl	GI50	29.2 µM (inactive)
Cc1ccc(-c2nnc(-c3nn(-c4ccccc4)c4nc5ccccc5nc34)o2)cc1	GI50	29.9 µM (inactive)
COC(=O)/C=C(/C=C1/C(C#N)=C(N)N(c2ccc(Cl)cc2)C1(C)/C(=C/C(=O)OC)C(=O)OC)C(=O)OC (stereo not given)	GI50	46.1 µM (inactive)
C=C1c2[nH]c3c([N+](=O)[O-])c(OC)ccc3c2CCN1C(C)=O	GI50	> 100 µM (inactive)
Cc1ccc(SC2C(=O)C3CC(OCc4ccccc4)C2(C)C3(C)C)cc1 (stereo not given)	GI50	64.7 µM (inactive)
O=C(c1ccccc1)C(c1ccccc1)C1(O)C(=O)Nc2c(Cl)ccc(Cl)c21 (stereo not given)	GI50	18.2 µM (inactive)

Could you report GI50 for every entry in the following list?
1. Cn1c(=O)c2c(nc3n2CCC(=O)N3CCCCl)n(C)c1=O
2. CCOC(=O)C1S/C(=N\c2ccc(Cl)c(Cl)c2)N=C1C (stereo not given)
3. CC(C)(C)c1ccc2c(c1)C#Cc1cc3c(cc1OCCCO2)C#Cc1cc(C(C)(C)C)ccc1OCCCO3
4. CCOc1cc[n+]([C-](C#N)C#N)cc1

Result block:
["> 100 µM (inactive)", "> 100 µM (inactive)", "> 100 µM (inactive)", "> 100 µM (inactive)"]

----------
- Tested on: SF-268
- protocol: NCI tumour cell line growth inhibition, 48 h
The source made the active and inactive calls. No stated cut-off is given here; in the data, active = GI50 up to about 1.1 µM and inactive = higher.
The categories you may choose from are active, inactive

molecule	system.tested	assigned.category
CNC(=O)C1CCCN1C(=O)C(Cc1c[nH]cn1)NC(=O)C1CCC(=O)N1 (stereo unspecified)	SF-268	inactive
CC1=NC(=Cc2cc(Br)cc(Br)c2)C(=O)N1n1c(-c2ccccc2)nc2ccccc2c1=O	SF-268	inactive
C1=Nc2sc3c(c2C2=NCCN12)CCCC3	SF-268	inactive

Query block: I would be grateful if you could indicate the recorded call for C=C(C)[C@H]1CC(=O)/C(C)=C\CC/C(C)=C/CC[C@@]2(C)O[C@@H]2C1 .
Result block: inactive

Query block: Assay outcome for Cc1cnc2cc(Cl)ccc2c1SCC(=O)O : what was it?
Result block: inactive

Query block: Which result was noted for this molecule in the test: CC(C)NC1CCCCC2c3cc(F)ccc3[C@]12O (stereo partly specified)
Result block: inactive

Query block: Which outcome did this test record for the molecule O=C(O)CCNS(=O)(=O)c1ccc([N+](=O)[O-])cc1 ?
Result block: inactive

Query block: // return assay outcome for OC1c2ccccc2CC12Cc1ccccc1C2 (stereo unspecified)
Result block: inactive

Query block: Outcome? C[C@@H](O)CCC(=O)c1ccoc1
Result block: inactive

Query block: Recorded test call requested for O=C(Cc1ccccc1)NN1C(=O)C(Cl)C1c1cccc([N+](=O)[O-])c1 (stereo unspecified)
Result block: inactive

Query block: In this assay, the call recorded for C[N+](C)(C)CC1CCCC/C1=N\OC(=O)c1ccccc1 (stereo unspecified) was what?
Result block: inactive

Query block: Would you mind telling me which call this test gave Nc1ncnc2c1ncn2CC(OCP(=O)(O)O)Oc1ccccc1 (stereo unspecified) ?
Result block: inactive

Query block: Could you please tell me the result logged for COC(=O)C1(c2ccc(N(C)C)cc2OC)CCCN(C(=O)Oc2ccccc2[N+](=O)[O-])CCc2c1[nH]c1ccccc21 (stereo unspecified) in this assay?
Result block: inactive

Query block: How did this test come out for CC(C)[C@H]1CO[C@]2(C)[C@@H]3CN(Cc4ccccc4)C[C@@H]3C(=O)N12 ?
Result block: inactive

Query block: Test call for this molecule, please: COc1ccc2nc(-c3cccc(N(C)C)c3)cc(O)c2c1
Result block: active

Query block: What outcome does the record of this test show for Cc1cc(O)c(O)c(Oc2cc(C)cc(O)c2O)c1 ?
Result block: inactive

Query block: Entry O=C(N[C@H]1CCC[C@H]1C(=O)Nc1ccc(C(F)(F)F)cc1)OCc1ccccc1 : call = ?
Result block: inactive

Query block: Recorded call for CCCCCCCc1ccc(-c2nnc(/N=N/c3ccc(OCCCCC)cc3)s2)s1 ?
Result block: inactive

Query block: I would be grateful if you could indicate the recorded call for COc1ccc(CNC(=O)[C@H](Cc2ccc(O)cn2)NC(C)=O)cc1OC .
Result block: inactive

Query block: Recorded test outcome, item Cc1[nH]c2ccccc2c1/C=N/c1ccc(Oc2ccccc2)cc1
Result block: inactive

Query block: What did this assay record as the result for COc1ccc(/C=C2\C[C@H]3[C@@H]4CC=C5C[C@@H](O)CC[C@]5(C)[C@H]4CC[C@]3(C)\C2=N\O)cc1 ?
Result block: inactive
